Parameter inhibition at 1 µM: see the listing below.
- Target or test system: UniProtKB Q07343
- Assay protocol: Scintillation Proximity (SPA) assay, inhibition of PDE4B at 1 μM
- Assay type: biochemical
- Condition set: Table C; test substance 1 μM; one hour incubation with [H3]-cAMP at 30° C.
Structures can show the parent of a compound that is named as a salt.

{"Compound": "[O-][S+]1CCc2nc(N3CCn4c(nnc4-c4ccc(F)cc4)C3)nc(NC3(CO)CC3)c21 (stereo not shown) [Example 31]", "U": "%", "inhibition at 1 µM": 93}
{"Compound": "[O-][S+]1CCc2nc(N3CCn4c(Cc5ccc(Cl)c(Cl)c5)nnc4C3)nc(Nc3cccc(F)c3)c21 (stereo not shown) [Example 40]", "U": "%", "inhibition at 1 µM": 94}
{"Compound": "CC(C)[C@H](CO)Nc1nc(N2CCn3c(nnc3-c3ccc(F)cc3)C2)nc2c1[S+]([O-])CC2 (stereo partly shown) [Example 43]", "U": "%", "inhibition at 1 µM": 88}
{"Compound": "CCOC(=O)c1cn2c(n1)CN(c1nc3c(c(NC4CCOCC4)n1)[S+]([O-])CC3)CC2 (stereo not shown) [Example 34]", "U": "%", "inhibition at 1 µM": 95}
{"Compound": "[O-][S+]1CCc2nc(N3CCn4c(nnc4-c4ccc(F)cc4)C3)nc(Nc3cccc(F)c3)c21 (stereo not shown) [Example 39]", "U": "%", "inhibition at 1 µM": 95}
{"Compound": "CCOC(=O)c1cn2c(n1)CN(c1nc3c(c(N[C@@H](CO)C(C)C)n1)[S+]([O-])CC3)CC2 (stereo partly shown) [Example 42]", "U": "%", "inhibition at 1 µM": 94}
{"Compound": "[O-][S+]1CCc2nc(N3CCn4cnnc4C3)nc(Nc3cccc(F)c3)c21 (stereo not shown) [Example 41, TRIFLUOROACETATE]", "U": "%", "inhibition at 1 µM": 90}
{"Compound": "CCOC(=O)c1cn2c(n1)CN(c1nc3c(c(Nc4cccc(F)c4)n1)[S+]([O-])CC3)CC2 (stereo not shown) [Example 38]", "U": "%", "inhibition at 1 µM": 95}
{"Compound": "CC(C)[C@H](CO)Nc1nc(N2CCn3c(Cc4ccc(Cl)c(Cl)c4)nnc3C2)nc2c1[S+]([O-])CC2 (stereo partly shown) [Example 44]", "U": "%", "inhibition at 1 µM": 78}
{"Compound": "[O-][S+]1CCc2nc(N3CCn4cnnc4C3)nc(NC3CCOCC3)c21 (stereo not shown) [Example 37, TRIFLUOROACETATE]", "U": "%", "inhibition at 1 µM": 87}
{"Compound": "[O-][S+]1CCc2nc(N3CCn4c(Cc5ccc(Cl)c(Cl)c5)nnc4C3)nc(NC3(CO)CC3)c21 (stereo not shown) [Example 32]", "U": "%", "inhibition at 1 µM": 91}
{"Compound": "[O-][S+]1CCc2nc(N3CCn4cnnc4C3)nc(NC3(CO)CC3)c21 (stereo not shown) [Example 33]", "U": "%", "inhibition at 1 µM": 75}
{"Compound": "CCOC(=O)c1cn2c(n1)CN(c1nc3c(c(NC4(CO)CC4)n1)[S+]([O-])CC3)CC2 (stereo not shown) [Example 30]", "U": "%", "inhibition at 1 µM": 95}
{"Compound": "[O-][S+]1CCc2nc(N3CCn4c(nnc4-c4ccc(F)cc4)C3)nc(NC3CCOCC3)c21 (stereo not shown) [Example 35]", "U": "%", "inhibition at 1 µM": 94}
{"Compound": "CC(C)[C@H](CO)Nc1nc(N2CCn3cnnc3C2)nc2c1[S+]([O-])CC2 (stereo partly shown) [Example 45, TRIFLUOROACETATE]", "U": "%", "inhibition at 1 µM": 55}
{"Compound": "[O-][S+]1CCc2nc(N3CCn4c(Cc5ccc(Cl)c(Cl)c5)nnc4C3)nc(NC3CCOCC3)c21 (stereo not shown) [Example 36]", "U": "%", "inhibition at 1 µM": 93}

* * *

- Target or test system: PDE4B (Homo sapiens, UniProt Q07343)
- Sequence (Q07343 whole entry, species assumed): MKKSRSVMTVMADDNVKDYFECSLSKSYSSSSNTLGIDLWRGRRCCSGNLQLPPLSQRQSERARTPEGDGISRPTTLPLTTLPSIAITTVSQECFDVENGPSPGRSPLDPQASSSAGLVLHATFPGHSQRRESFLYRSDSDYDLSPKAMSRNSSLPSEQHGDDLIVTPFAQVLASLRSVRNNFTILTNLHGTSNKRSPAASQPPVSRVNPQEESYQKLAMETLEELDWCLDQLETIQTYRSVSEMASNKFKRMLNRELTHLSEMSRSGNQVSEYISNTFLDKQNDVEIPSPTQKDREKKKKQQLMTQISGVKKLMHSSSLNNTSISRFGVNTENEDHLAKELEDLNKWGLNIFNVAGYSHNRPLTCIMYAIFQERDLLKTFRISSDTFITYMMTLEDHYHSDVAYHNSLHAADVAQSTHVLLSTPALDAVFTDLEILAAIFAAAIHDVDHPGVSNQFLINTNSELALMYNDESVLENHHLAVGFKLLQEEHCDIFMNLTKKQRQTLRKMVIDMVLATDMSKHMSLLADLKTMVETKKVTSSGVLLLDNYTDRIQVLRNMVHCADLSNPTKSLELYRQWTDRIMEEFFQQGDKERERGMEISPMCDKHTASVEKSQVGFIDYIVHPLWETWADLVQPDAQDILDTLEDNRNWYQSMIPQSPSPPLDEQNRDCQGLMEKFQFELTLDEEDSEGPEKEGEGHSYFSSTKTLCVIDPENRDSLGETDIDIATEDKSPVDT
- Assay protocol: Scintillation Proximity (SPA) assay, inhibition of PDE4B at 1 μM
- Assay type: biochemical
- Condition set: Table D; test substance 1 μM; one hour incubation with [H3]-cAMP at 30° C.

{"Compound": "Cc1nn(C)cc1CNC(=O)c1cn2c(n1)CN(c1nc3c(c(NC4CCOCC4)n1)[S+]([O-])CC3)CC2 (stereo not drawn)", "inhibition at 1 µM": "94%"}
{"Compound": "CN1C[C@@H](Nc2nc(N3CCn4c(nnc4-c4ccc(F)cc4)C3)nc3c2[S+]([O-])CC3)CCC1=O (stereo partly drawn)", "inhibition at 1 µM": "96%"}
{"Compound": "Cc1nn(C)c(C)c1CNC(=O)c1cn2c(n1)CN(c1nc3c(c(NC4CCOCC4)n1)[S+]([O-])CC3)CC2 (stereo not drawn)", "inhibition at 1 µM": "94%"}
{"Compound": "O=C(c1cn2c(n1)CN(c1nc3c(c(NC4CCOCC4)n1)[S+]([O-])CC3)CC2)N1CCOCC1 (stereo not drawn)", "inhibition at 1 µM": "93%"}
{"Compound": "O=C(c1cn2c(n1)CN(c1nc3c(c(NC4CCOCC4)n1)[S+]([O-])CC3)CC2)N(C1CCOCC1)C1CC1 (stereo not drawn)", "inhibition at 1 µM": "93%"}
{"Compound": "Cc1nn(C)cc1C(C)NC(=O)c1cn2c(n1)CN(c1nc3c(c(NC4CCOCC4)n1)[S+]([O-])CC3)CC2 (stereo not drawn)", "inhibition at 1 µM": "93%"}
{"Compound": "CN(C(=O)c1cn2c(n1)CN(c1nc3c(c(NC4CCOCC4)n1)[S+]([O-])CC3)CC2)C1CCOCC1 (stereo not drawn)", "inhibition at 1 µM": "94%"}
{"Compound": "CC(C)(NC(=O)c1cn2c(n1)CN(c1nc3c(c(NC4CCOCC4)n1)[S+]([O-])CC3)CC2)c1ccncc1 (stereo not drawn)", "inhibition at 1 µM": "94%"}
{"Compound": "CN(C(=O)c1cn2c(n1)CN(c1nc3c(c(NC4CCOCC4)n1)[S+]([O-])CC3)CC2)C1CC1 (stereo not drawn)", "inhibition at 1 µM": "93%"}
{"Compound": "Cc1cn(C)nc1CN(C)C(=O)c1cn2c(n1)CN(c1nc3c(c(NC4CCOCC4)n1)[S+]([O-])CC3)CC2 (stereo not drawn)", "inhibition at 1 µM": "94%"}
{"Compound": "CCOC(=O)c1cn2c(n1)CN(c1nc3c(c(N[C@H]4CCC(=O)N(C)C4)n1)[S+]([O-])CC3)CC2 (stereo partly drawn)", "inhibition at 1 µM": "97%"}
{"Compound": "CN1CCC(N(C)C(=O)c2cn3c(n2)CN(c2nc4c(c(NC5CCOCC5)n2)[S+]([O-])CC4)CC3)CC1 (stereo not drawn)", "inhibition at 1 µM": "93%"}

* * *

Parameter inhibition at 1 µM: see the listing below.
- Target or test system: PDE4B (Homo sapiens)
- Assay protocol: Scintillation Proximity (SPA) assay, inhibition of PDE4B at 1 μM
- Format: biochemical
- Condition set: Table A; test substance 1 μM; one hour incubation with [H3]-cAMP at 30° C.
Structures can show the parent of a compound that is named as a salt.
Assay readout: inhibition at 1 µM (%)

{"Compound": "[O-][S+]1CCc2nc(N3C4CC[C@@H]3CN(c3ccc(Br)cc3)C4)nc(NC3(CO)CC3)c21 (some centres unmarked) [Example 28, trifluoroacetate]", "U": "%", "Observed measurement": 97}
{"Compound": "[O-][S+]1CCc2nc(N3CC4CC3CN4c3ccc(Br)cc3)nc(NC3(CO)CC3)c21 (centres unmarked) [Example 22]", "U": "%", "Observed measurement": 95}
{"Compound": "O=C1CN(c2nc3c(c(NC4(CO)CC4)n2)[S+]([O-])CC3)CCN1c1ccccc1 (centres unmarked) [Example 16]", "U": "%", "Observed measurement": 86}
{"Compound": "O=C1CN(c2nc3c(c(NC4(CO)CC4)n2)[S+]([O-])CC3)CCN1c1cccc(Br)c1 (centres unmarked) [Example 13]", "U": "%", "Observed measurement": 19}
{"Compound": "O=C1CN(c2nc3c(c(NC4CCOCC4)n2)[S+]([O-])CC3)CCN1c1cccc(Br)c1 (centres unmarked) [Example 14]", "U": "%", "Observed measurement": 92}
{"Compound": "[O-][S+]1CCc2nc(N3CC4CC3CN4c3ccc(F)cc3)nc(NC3CCOCC3)c21 (centres unmarked) [Example 26]", "U": "%", "Observed measurement": 94}
{"Compound": "[O-][S+]1CCc2nc(N3CC4CC3CN4c3cccc(F)c3)nc(NC3(CO)CC3)c21 (centres unmarked) [Example 23]", "U": "%", "Observed measurement": 93}
{"Compound": "C[C@H]1CN(c2ccc(Cl)cc2)CCN1c1nc2c(c(NC3CCOCC3)n1)[S+]([O-])CC2 (some centres unmarked) [Example 4]", "U": "%", "Observed measurement": 95}
{"Compound": "C[C@H]1CN(c2ccc(Cl)cc2)CCN1c1nc2c(c(Nc3cccc(F)c3)n1)[S+]([O-])CC2 (some centres unmarked) [Example 10]", "U": "%", "Observed measurement": 94}
{"Compound": "O=C1CN(c2nc3c(c(Nc4cccc(F)c4)n2)[S+]([O-])CC3)CCN1c1ccccc1 (centres unmarked) [Example 19]", "U": "%", "Observed measurement": 95}
{"Compound": "CC(C)[C@H](CO)Nc1nc(N2CCN(c3ccc(Cl)cc3)C[C@H]2C)nc2c1[S+]([O-])CC2 (some centres unmarked) [Example 1]", "U": "%", "Observed measurement": 84}
{"Compound": "C[C@H]1CN(c2ccc(Cl)cc2)CCN1c1nc2c(c(NC3(CO)CC3)n1)[S+]([O-])CC2 (some centres unmarked) [Example 5]", "U": "%", "Observed measurement": 95}
{"Compound": "[O-][S+]1CCc2nc(N3CC4CC3CN4c3ccc(Cl)cc3)nc(NC3CCOCC3)c21 (centres unmarked) [Example 6]", "U": "%", "Observed measurement": 95}
{"Compound": "CN1C[C@@H](Nc2nc(N3C[C@H]4CC3CN4c3ccc(Cl)cc3)nc3c2[S+]([O-])CC3)CCC1=O (some centres unmarked) [Example 9]", "U": "%", "Observed measurement": 96}
{"Compound": "CC(C)[C@H](CO)Nc1nc(N2CCN(c3ccccc3)C(=O)C2)nc2c1[S+]([O-])CC2 (some centres unmarked) [Example 15]", "U": "%", "Observed measurement": 77}
{"Compound": "[O-][S+]1CCc2nc(N3CC4CC3CN4c3ccc(Cl)cc3)nc(Nc3cccc(F)c3)c21 (centres unmarked) [Example 7]", "U": "%", "Observed measurement": 95}
{"Compound": "O=C1CN(c2nc3c(c(NC4CCOCC4)n2)[S+]([O-])CC3)CCN1c1ccccc1 (centres unmarked) [Example 18]", "U": "%", "Observed measurement": 93}
{"Compound": "[O-][S+]1CCc2nc(N3C[C@H]4CC3CN4c3ccc(Br)cc3)nc(Nc3cccc(F)c3)c21 (some centres unmarked) [Example 21]", "U": "%", "Observed measurement": 95}
{"Compound": "CC(C)[C@H](CO)Nc1nc(N2CCN(c3ccc(Cl)cc3)C[C@@H]2C)nc2c1[S+]([O-])CC2 (some centres unmarked) [Example 2]", "U": "%", "Observed measurement": 94}
{"Compound": "[O-][S+]1CCc2nc(N3C[C@H]4CC3CN4c3ccc(F)cc3)nc(NC3(CO)CC3)c21 (some centres unmarked) [Example 24]", "U": "%", "Observed measurement": 93}
{"Compound": "[O-][S+]1CCc2nc(N3CC4CC3CN4c3ccc(Br)cc3)nc(NC3CCOCC3)c21 (centres unmarked) [Example 20]", "U": "%", "Observed measurement": 95}
{"Compound": "O=C1CN(c2nc3c(c(NC4(CO)CC4)n2)[S+]([O-])CC3)CCN1c1ccc(Br)cc1 (centres unmarked) [Example 11]", "U": "%", "Observed measurement": 90}
{"Compound": "[O-][S+]1CCc2nc(N3CC4CC3CN4c3cccc(F)c3)nc(NC3CCOCC3)c21 (centres unmarked) [Example 25]", "U": "%", "Observed measurement": 94}
{"Compound": "[O-][S+]1CCc2nc(N3C[C@H]4CC3CN4c3nc4ccccc4o3)nc(NC3CCOCC3)c21 (some centres unmarked) [Example 29]", "U": "%", "Observed measurement": 97}
{"Compound": "C[C@H]1CN(c2ccc(Cl)cc2)CCN1c1nc2c(c(N[C@H]3CCC(=O)N(C)C3)n1)[S+]([O-])CC2 (some centres unmarked) [Example 3]", "U": "%", "Observed measurement": 96}
{"Compound": "CN1C[C@@H](Nc2nc(N3CCN(c4ccccc4)C(=O)C3)nc3c2[S+]([O-])CC3)CCC1=O (some centres unmarked) [Example 17]", "U": "%", "Observed measurement": 96}
{"Compound": "[O-][S+]1CCc2nc(N3C4CCC3CN(c3ccc(Br)cc3)C4)nc(NC3CCOCC3)c21 (centres unmarked) [Example 27]", "U": "%", "Observed measurement": 97}
{"Compound": "[O-][S+]1CCc2nc(N3CC4CC3CN4c3ccc(Cl)cc3)nc(NC3(CO)CC3)c21 (centres unmarked) [Example 8]", "U": "%", "Observed measurement": 95}
{"Compound": "O=C1CN(c2nc3c(c(NC4CCOCC4)n2)[S+]([O-])CC3)CCN1c1ccc(Br)cc1 (centres unmarked) [Example 12]", "U": "%", "Observed measurement": 93}
